System: OVCAR-8
assay text: NCI tumour cell line growth inhibition, 48 h
The source made the active and inactive calls. Cut-off read from the data, not from the text of the source: active = GI50 up to about 1.1 µM and inactive = higher.
In this section, each of the compounds is paired with its reported GI50.

Consider the reported GI50 for these compounds:
compound | result
C[C@H](CCC(=O)O)[C@H]1CC[C@@]2(C)[C@@H]3C(=O)C[C@H]4C(C)(C)[C@@H](O)CC[C@]4(C)[C@H]3C(=O)C[C@]12C | > 100 µM (inactive)
Oc1cc(-c2ccccc2)cn2c1nc1ccccc12 | 2.42 µM (inactive)

Consider the compound shown here: CCCCn1/c(=N/C(=S)N(C)C)ss/c1=N\C(=S)N(C)C What is its recorded GI50?
> 100 µM (inactive)

Consider the compound shown here: CN(C)CCCNC(CC#N)CCC#N (stereo not given) What is its recorded GI50?
> 10 µM (inactive)

Consider the compound shown here: C=C(C)[C@@H]1CCC2=C[C@H](OC2=O)[C@@]2(C)C[C@@H]2C(=O)/C=C(/C)C(=O)[C@H]1OC(C)=O What is its recorded GI50?
15.1 µM (inactive)
